Data origin: the supplement of paper PMC8728848

Target: Fuc(a1-2)[GalNAc(a1-3)]Gal(b1-3)GalNAc(b1-3)Gal(a1-4)Gal(b1-4)Glc
Assay: glycan array binding signal (z-score within array); higher = stronger binding
Settings: glycan notation: IUPAC condensed, linker removed
Many of the other results were omitted from the sample, so the strongest signals are more common in it than they were.
Think of -0.2 as a floor: if glycan array binding signal (z-score) stands on it or above, it is TRUE; beneath it, FALSE.

binder	assigned category
HPA (Helix pomatia), Q575S3 (protein) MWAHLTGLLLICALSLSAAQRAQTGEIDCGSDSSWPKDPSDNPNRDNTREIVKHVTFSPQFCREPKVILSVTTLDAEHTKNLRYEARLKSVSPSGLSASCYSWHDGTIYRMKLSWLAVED	TRUE
OGAA (protein) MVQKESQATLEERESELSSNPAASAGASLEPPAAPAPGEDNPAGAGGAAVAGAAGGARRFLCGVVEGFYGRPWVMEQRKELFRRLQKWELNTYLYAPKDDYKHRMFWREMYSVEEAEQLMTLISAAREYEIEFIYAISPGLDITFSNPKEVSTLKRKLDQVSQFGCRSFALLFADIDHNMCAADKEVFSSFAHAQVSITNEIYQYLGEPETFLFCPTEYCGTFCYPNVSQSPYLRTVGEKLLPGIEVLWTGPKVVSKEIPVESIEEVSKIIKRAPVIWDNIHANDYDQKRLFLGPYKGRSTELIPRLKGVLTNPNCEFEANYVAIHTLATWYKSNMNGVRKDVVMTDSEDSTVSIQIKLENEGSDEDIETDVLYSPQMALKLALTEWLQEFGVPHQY	TRUE
OGAN (protein) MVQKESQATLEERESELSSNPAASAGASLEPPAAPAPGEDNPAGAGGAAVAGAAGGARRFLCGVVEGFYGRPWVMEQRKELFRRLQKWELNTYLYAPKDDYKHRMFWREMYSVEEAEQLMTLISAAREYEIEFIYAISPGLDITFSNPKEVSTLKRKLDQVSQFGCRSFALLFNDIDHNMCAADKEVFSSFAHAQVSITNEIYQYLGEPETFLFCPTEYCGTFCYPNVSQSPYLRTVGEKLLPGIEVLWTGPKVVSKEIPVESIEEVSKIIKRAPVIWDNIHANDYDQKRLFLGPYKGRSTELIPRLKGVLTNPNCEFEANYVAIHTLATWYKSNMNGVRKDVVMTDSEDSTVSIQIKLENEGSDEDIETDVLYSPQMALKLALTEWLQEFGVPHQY	TRUE
EULS2 M4 (Oryza sativa) (protein) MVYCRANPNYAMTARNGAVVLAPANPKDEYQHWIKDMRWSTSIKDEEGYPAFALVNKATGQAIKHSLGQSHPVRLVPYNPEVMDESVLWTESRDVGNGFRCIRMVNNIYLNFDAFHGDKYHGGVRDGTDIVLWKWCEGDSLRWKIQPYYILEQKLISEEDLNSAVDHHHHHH	FALSE
LSL-150 (Laetiporus sulphureus), Q7Z8V1 (protein) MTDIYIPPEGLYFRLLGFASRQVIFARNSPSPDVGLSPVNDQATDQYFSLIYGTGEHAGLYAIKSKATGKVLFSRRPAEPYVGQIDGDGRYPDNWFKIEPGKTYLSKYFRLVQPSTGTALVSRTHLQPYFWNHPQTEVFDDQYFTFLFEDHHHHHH	FALSE
HPAIIITrx (Helix pomatia), Q1KM18 (protein) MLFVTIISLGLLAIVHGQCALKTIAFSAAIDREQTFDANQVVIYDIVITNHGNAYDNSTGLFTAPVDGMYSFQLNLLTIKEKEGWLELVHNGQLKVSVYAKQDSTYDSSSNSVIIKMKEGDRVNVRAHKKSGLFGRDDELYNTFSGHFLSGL	TRUE
LlpA1 (Pseudomonas fluorescens), Q4KHC3 (protein) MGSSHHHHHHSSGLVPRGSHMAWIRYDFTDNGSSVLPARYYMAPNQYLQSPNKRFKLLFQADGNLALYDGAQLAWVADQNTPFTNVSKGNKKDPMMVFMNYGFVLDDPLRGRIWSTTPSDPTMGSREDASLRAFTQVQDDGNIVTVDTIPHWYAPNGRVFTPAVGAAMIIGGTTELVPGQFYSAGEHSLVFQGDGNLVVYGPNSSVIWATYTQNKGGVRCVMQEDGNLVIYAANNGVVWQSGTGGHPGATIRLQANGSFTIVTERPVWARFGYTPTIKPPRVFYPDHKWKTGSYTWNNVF	TRUE
XTP3-B-MRH1 (Homo sapiens), Q96DZ1 (protein) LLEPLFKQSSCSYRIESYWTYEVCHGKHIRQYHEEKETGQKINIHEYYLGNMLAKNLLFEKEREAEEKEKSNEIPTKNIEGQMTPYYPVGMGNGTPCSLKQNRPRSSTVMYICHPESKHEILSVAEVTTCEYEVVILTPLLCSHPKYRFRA	FALSE
Mincle (Bos taurus) (protein) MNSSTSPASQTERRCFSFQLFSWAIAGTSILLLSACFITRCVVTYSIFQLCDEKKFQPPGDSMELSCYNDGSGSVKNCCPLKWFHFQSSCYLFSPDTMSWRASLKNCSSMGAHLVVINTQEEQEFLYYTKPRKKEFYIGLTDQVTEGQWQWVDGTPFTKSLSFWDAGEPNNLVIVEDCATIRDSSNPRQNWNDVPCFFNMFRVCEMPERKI	FALSE
